- Species on record: Homo sapiens
- method: In vitro inhibition of LTB4 biosynthesis in A-23187-stimulated human whole blood
- Format: functional
A collection of compounds and their measured IC50
Numeric answer only, unit nM assumed.

INSERT INTO results (test_smiles, reported_endpoint, measurement) VALUES
  ('CO[C@@]1(c2cc(F)cc(OCc3ccc4c(ccc(=O)n4C)c3)c2)CCO[C@@H](C)C1', 'IC50', 1760),
  ('CO[C@@]1(c2cc(F)cc(OCc3ccc4c(ccc(=O)n4C)c3)c2)CCO[C@H](C)C1', 'IC50', 670);

Any idea what its IC50 is? The compound is "CO[C@]1(c2cc(F)cc(OCc3ccc4c(ccc(=O)n4C)c3)c2)CCO[C@H](C)C1"
140
